Test system: Phosphorylation of ERK1/2 in MIA PaCa-2 cells
method.notes: Phospho-ERK1/2 MSD assay
Type: cell-based
experimental.context: Homo sapiens, MIA PaCa-2, MIA PaCa-2 cells; compound 2 or 4 hours; 10 ng/mL EGF for 10 min; read-out: p-ERK IC50 (MIA-PaCa-2)
Description: Phospho-ERK1/2 MSD Assay: MIA PaCa-2 (ATCC® CRL-1420™)-cells were cultured in RPMI 1640 Medium (ThermoFisher Scientific 11875093) containing 10% fetal bovine serum (ThermoFisher Scientific 16000044) and 1× penicillin-streptomycin-glutamine (ThermoFisher Scientific 10378016). […] Assay plates were read on a Meso Scale Discovery Sector Imager 6000, and data were analyzed using a 4-parameter logistic model to calculate IC50 values.
Each record here notes measured pIC50.
FYI, pIC50 means -log10 of a concentration in mol per litre.

molecule=C=CC(=O)N1C[C@H](C)N(C2=NC(=O)C3(Cc4ccccc4C3)c3nc(-c4ccccc4F)c(Cl)cc32)C[C@H]1C value_kind=pIC50 val=5.75
molecule="C=CC(=O)N1C[C@H](C)N(C2=NC(=O)C3(CCc4ccccc43)c3nc(-c4ccccc4F)c(Cl)cc32)C[C@H]1C (some centres unmarked)" value_kind=pIC50 val=5.75
molecule="C=CC(=O)N1CCN(C2=NC(=O)C(C)(CC(C)C)c3nc(-c4ccccc4F)c(Cl)cc32)[C@@H](C)C1 (single isomer, unassigned)" value_kind=pIC50 val=5.75

Give its pIC50 value. Item: C=CC(=O)N1C[C@H](C)N(C2=NC(=O)C(C)(C3CC3)c3nc(-c4ccccc4F)c(Cl)cc32)C[C@H]1C (some centres unmarked) 5.79

Field entry: C=CC(=O)N1C[C@H](C)N(C2=NC(=O)C3(CCCCC3)c3nc(-c4ccccc4F)c(Cl)cc32)C[C@H]1C 5.48

Now try C=CC(=O)N1C[C@H](C)N(C2=NC(=O)C(C)(CC)c3nc(-c4ccccc4F)c(Cl)cc32)C[C@H]1C (single isomer, unassigned) . 5.56

Now the molecule C=CC(=O)N1C[C@H](C)N(C2=NC(=O)C(C)(C3CCC3)c3nc(-c4ccccc4F)c(Cl)cc32)C[C@H]1C (single isomer, unassigned) [Example 1-3-2] 6.46

Also C=CC(=O)N1C[C@H](C)N(C2=NC(=O)C(C)(C3CCC3)c3nc(-c4ccccc4F)c(Cl)cc32)C[C@H]1C (some centres unmarked) [Example 1-3] ? 6.02

----------
measured.on: GDP-bound KRAS protein (aa 1-169), containing both G12C and C118A amino acid substitutions (Homo sapiens, UniProt P01116, C118A/G12C)
Sequence (P01116 1-169 isoform P01116-2 G12C/C118A): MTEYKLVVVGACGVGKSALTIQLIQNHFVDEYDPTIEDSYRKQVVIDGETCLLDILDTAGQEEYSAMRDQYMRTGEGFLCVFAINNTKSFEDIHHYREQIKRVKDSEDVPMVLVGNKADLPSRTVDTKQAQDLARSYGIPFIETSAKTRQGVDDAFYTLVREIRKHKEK
method.notes: Coupled nucleotide exchange assay (SOS-mediated, AlphaScreen)
Type: biochemical
experimental.context: compound pre-incubation either 5 min or 2 hours (not stated per value); SOS and GTP added, cRAF AlphaScreen readout
Experimental: Coupled Nucleotide Exchange Assay: Following compound pre-incubation, purified SOS protein (aa 564-1049) and GTP (Roche 10106399001) were added to the assay wells and incubated for an additional 30 min (for 5 min compound pre-incubation) or 1 hour (for 2 hour compound pre-incubation). […] The assay plates were then read on a PerkinElmer EnVision Multilabel Reader, using AlphaScreen® technology, and data were analyzed using a 4-parameter logistic model to calculate IC50 values.
Response field label takes Criterion met when Coupled Exchange IC50 is strictly below 20 µM and Criterion not met in all other cases.

Solved entries:
compound="C=CC(=O)N1C[C@H](C)N(C2=NC(=O)C(C)(CC)c3nc(-c4ccccc4F)c(Cl)cc32)C[C@H]1C (single isomer, unassigned) [Example 1-4-2]" class="Criterion not met"
compound="C=CC(=O)N1C[C@H](C)N(C2=NC(=O)C(C)(C3CC3)c3nc(-c4ccccc4F)c(Cl)cc32)C[C@H]1C (single isomer, unassigned) [Example 1-2-2]" class="Criterion not met"
compound="C=CC(=O)N1C[C@H](C)N(C2=NC(=O)C3(CCc4ccccc43)c3nc(-c4ccccc4F)c(Cl)cc32)C[C@H]1C (single isomer, unassigned) [Example 1-7-2]" class="Criterion met"
compound="C=CC(=O)N1C[C@H](C)N(C2=NC(=O)C(C)(C3CCC3)c3nc(-c4ccccc4F)c(Cl)cc32)C[C@H]1C (single isomer, unassigned) [Example 1-3-1]" class="Criterion not met"
compound="C=CC(=O)N1C[C@H](C)N(C2=NC(=O)C(C)(c3ccccc3)c3nc(-c4ccccc4F)c(Cl)cc32)C[C@H]1C (single isomer, unassigned) [Example 1-5-1]" class="Criterion not met"
compound="C=CC(=O)N1C[C@H](C)N(C2=NC(=O)C(C)(c3ccccc3)c3nc(-c4ccccc4F)c(Cl)cc32)C[C@H]1C (stereo partly drawn) [Example 1-5]" class="Criterion not met"

Record C=CC(=O)N1C[C@H](C)N(C2=NC(=O)C(C)(CC(C)C)c3nc(-c4ccccc4F)c(Cl)cc32)C[C@H]1C (single isomer, unassigned) [Example 1-8-2] : is its Coupled Exchange IC50 strictly below 20 µM? Criterion met

What would you report for C=CC(=O)N1C[C@H](C)N(C2=NC(=O)C(C3CC3)(C3CC3)c3nc(-c4ccccc4F)c(Cl)cc32)C[C@H]1C ? Criterion met

----------
measured.on: GDP-bound KRAS protein (aa 1-169), containing both G12C and C118A amino acid substitutions (Homo sapiens, UniProt P01116, C118A/G12C)
method.notes: Coupled nucleotide exchange assay (SOS-mediated, AlphaScreen)
Type: biochemical
experimental.context: compound pre-incubation either 5 min or 2 hours (not stated per value); SOS and GTP added, cRAF AlphaScreen readout
Returns one of Criterion met or Criterion not met; Criterion met when Coupled Exchange IC50 is >= 5 µM.

The following compounds have reported results that may help.
compound="C=CC(=O)N1C[C@H](C)N(C2=NC(=O)C(C)(C3CCC3)c3nc(-c4ccccc4F)c(Cl)cc32)C[C@H]1C (single isomer, unassigned) [Example 1-3-2]" class="Criterion not met"
compound="C=CC(=O)N1C[C@H](C)N(C2=NC(=O)C(C)(c3ccccc3)c3nc(-c4ccccc4F)c(Cl)cc32)C[C@H]1C (single isomer, unassigned) [Example 1-5-2]" class="Criterion met"
compound="C=CC(=O)N1C[C@H](C)N(C2=NC(=O)C3(CCCCC3)c3nc(-c4ccccc4F)c(Cl)cc32)C[C@H]1C [Example 1-6]" class="Criterion met"
compound="C=CC(=O)N1C[C@H](C)N(C2=NC(=O)C(C)(CC(C)C)c3nc(-c4ccccc4F)c(Cl)cc32)C[C@H]1C (single isomer, unassigned) [Example 1-8-1]" class="Criterion met"
compound="C=CC(=O)N1CCN(C2=NC(=O)C(C)(CC(C)C)c3nc(-c4ccccc4F)c(Cl)cc32)[C@@H](C)C1 (stereo partly drawn) [Example 3-1]" class="Criterion met"
compound="C=CC(=O)N1CCN(C2=NC(=O)C(C)(CC(C)C)c3nc(-c4ccccc4F)c(Cl)cc32)[C@@H](C)C1 (single isomer, unassigned) [Example 3-1-2]" class="Criterion met"

Entry C=CC(=O)N1C[C@H](C)N(C2=NC(=O)C(C)(C3CC3)c3nc(-c4ccccc4F)c(Cl)cc32)C[C@H]1C (single isomer, unassigned) [Example 1-2-1] : is its Coupled Exchange IC50 no less than 5 µM? Criterion met

And what about the compound C=CC(=O)N1C[C@H](C)N(C2=NC(=O)C3(CCc4ccccc43)c3nc(-c4ccccc4F)c(Cl)cc32)C[C@H]1C (single isomer, unassigned) [Example 1-7-1] ? Criterion met

Now the compound C=CC(=O)N1C[C@H](C)N(C2=NC(=O)C(C)(CC(C)C)c3nc(-c4ccccc4F)c(Cl)cc32)C[C@H]1C (stereo partly drawn) [Example 1-8] Criterion met

Also C=CC(=O)N1C[C@H](C)N(C2=NC(=O)C(C)(CC)c3nc(-c4ccccc4F)c(Cl)cc32)C[C@H]1C (single isomer, unassigned) [Example 1-4-1] ? Criterion met

C=CC(=O)N1C[C@H](C)N(C2=NC(=O)C(C)(C3CCC3)c3nc(-c4ccccc4F)c(Cl)cc32)C[C@H]1C (stereo partly drawn) [Example 1-3] ? Criterion not met

Queued: C=CC(=O)N1C[C@H](C)N(C2=NC(=O)C3(Cc4ccccc4C3)c3nc(-c4ccccc4F)c(Cl)cc32)C[C@H]1C [Example 2-2] Criterion not met

----------
measured.on: GDP-bound KRAS protein (aa 1-169), containing both G12C and C118A amino acid substitutions (Homo sapiens, UniProt P01116, C118A/G12C)
method.notes: Coupled nucleotide exchange assay (SOS-mediated, AlphaScreen)
Assay type: biochemical
experimental.context: compound pre-incubation either 5 min or 2 hours (not stated per value); SOS and GTP added, cRAF AlphaScreen readout
Coupled Exchange IC50: recorded values
Respond with the bare value in µM.

The cases that follow already have their Coupled Exchange IC50 on record.
compound="C=CC(=O)N1C[C@H](C)N(C2=NC(=O)C3(CCc4ccccc43)c3nc(-c4ccccc4F)c(Cl)cc32)C[C@H]1C (stereo partly drawn) [Example 1-7]" unit_symbol=µM val=8.04
compound="C=CC(=O)N1C[C@H](C)N(C2=NC(=O)C(C)(C3CCCC3)c3nc(-c4ccccc4F)c(Cl)cc32)C[C@H]1C (single isomer, unassigned) [Example 1-1-2]" unit_symbol=µM val=1.43
compound="C=CC(=O)N1C[C@H](C)N(C2=NC(=O)C(C)(C3CCCC3)c3nc(-c4ccccc4F)c(Cl)cc32)C[C@H]1C (mixture of isomers) [Example 1-1]" unit_symbol=µM val=2.68
compound="C=CC(=O)N1C[C@H](C)N(C2=NC(=O)C(C)(C3CCCC3)c3nc(-c4ccccc4F)c(Cl)cc32)C[C@H]1C (single isomer, unassigned) [Example 1-1-1]" unit_symbol=µM val=250
compound="C=CC(=O)N1CCN(C2=NC(=O)C(C)(CC(C)C)c3nc(-c4ccccc4F)c(Cl)cc32)[C@@H](C)C1 (single isomer, unassigned) [Example 3-1-1]" unit_symbol=µM val=94.7

Could you now consider this next compound?
Please look up its Coupled Exchange IC50: C=CC(=O)N1C[C@H](C)N(C2=NC(=O)C(C)(CC)c3nc(-c4ccccc4F)c(Cl)cc32)C[C@H]1C (stereo partly drawn) [Example 1-4] 19.3

Where do these numbers come from? They come from patent US11096939B2.
